Data origin, for the record: paper PMC7952403

# Measured target: T1, SARS-CoV-2 RBD-SD1 with murine IgG2a Fc part, produced in High Five cells (SARS-CoV-2, UniProt P0DTC2)
# T1 construct: source: High Five insect cells, transient transfection, purified (Protein A)
# Procedure details: ELISA
# Experimental context: both partners purified
Reported EC50 values for a set of binders

Example entries begin here.
STE73-6C1 scFv-Fc (scFv, V domains shown, also called scFv-hFc; source: Expi293F, transient transfection, purified (Protein A)) VH: QVQLVQSGGGVVQPGRSLRLSCAASGFTFSSYAMHWVRQAPGKGLEWVAVISYDGSNKYYADSVKGRFTISRDNSKNTLYLQMNSLRAEDTAVYYCARSYVGGMDVWGQGTTVTVSS VL: QLVLTQSPSVSGAPGQSVTISCTGTDSNIGAGYNVHWYQQLPGAAPKLIISYTDNRPSGVPDRFSGSKSGTSASLAITGLQAEDEADYYCQSSDRTLVGSLFGTGTKVTVL = 600 pM
STE73-2G8 scFv-Fc (scFv, V domains shown, also called scFv-hFc; source: Expi293F, transient transfection, purified (Protein A)) VH: QVQLVQSGGGLVKPGGSLRLSCAASGITVSSNYMSWVRQAPGKGLEWVSILYSGGTTFYTDSVKGRFTISRDNSKNTLHLQMNSLRAEDTAVYYCARWSGTYYDYWGQGTLVTVSS VL: SSELTQDPAVSVALGQTVRITCQGDSLRSYYASWYQQKPGQAPVLVIYGKNNRPSGIPDRFSGSSSGNTASLTITGAQAEDEADYYCNSRDSTNDPVLFGAGTKLTVL = 200 pM

Problem: Request the reported EC50 associated with STE73-9G3 IgG (antibody, V domains shown, source: Expi293F, transfected, purified (Protein A); copies: 2 + 2) VH: QVQLQESGGGLVQPGGSLRLSCAASGFTFSSYAMSWVRQAPGKGLEWVSAISGSGGSTYYADSVKGRFTISRDNSKNTLYLQMNSLRAEDTAVYYCARDLVLGSGSSNDWGRGTLVTVSS VL: QPVLTQPPSVSGAPGQSVTISCTGTDSNIGAGYNVHWYQQLPGAAPKLIISYTDNRPSGVPDRFSGSKSGTSASLAITGLQAEDEADYYCQSSDRTLVGSLFGTGTKVTVL
Solution: 400 pM
